assay type: physicochemical; conditions: Group 2, 25° C./60% RH-5 days
Each record here notes measured HPLC purity.

| Molecule | HPLC purity [%] |
| --- | --- |
| COc1ccc2[nH]c3c(c2c1)CCN[C@]31CS[C@@H]2c3c(OC(C)=O)c(C)c4c(c3[C@H](COC1=O)N1[C@@H]2[C@H]2c3c(cc(C)c(OC)c3O)C[C@@H]([C@@H]1O)N2C)OCO4 [crystal form B, lurbinectedin, reference compound] | 99.44 |
| COc1ccc2[nH]c3c(c2c1)CCN[C@]31CS[C@@H]2c3c(OC(C)=O)c(C)c4c(c3[C@H](COC1=O)N1[C@@H]2[C@H]2c3c(cc(C)c(OC)c3O)C[C@@H]([C@@H]1O)N2C)OCO4 [crystal form II, lurbinectedin] | 99.40 |
| COc1ccc2[nH]c3c(c2c1)CCN[C@]31CS[C@@H]2c3c(OC(C)=O)c(C)c4c(c3[C@H](COC1=O)N1[C@@H]2[C@H]2c3c(cc(C)c(OC)c3O)C[C@@H]([C@@H]1O)N2C)OCO4 [crystal form III, lurbinectedin] | 99.48 |
| COc1ccc2[nH]c3c(c2c1)CCN[C@]31CS[C@@H]2c3c(OC(C)=O)c(C)c4c(c3[C@H](COC1=O)N1[C@@H]2[C@H]2c3c(cc(C)c(OC)c3O)C[C@@H]([C@@H]1O)N2C)OCO4 [crystal form IV, lurbinectedin] | 99.86 |
